Experiment: Inhibition of [3H]thymidine uptake by Dopamine receptor D2
Endpoint: EC50 (nM)
Field: numeric (nM). Do not append units.

Exercise: Report EC50 for c1ccc(N2CCN(CC[C@H]3CC[C@H](c4c[nH]c5ccccc54)CC3)CC2)nc1 please.
Solution: 2.8

Values compiled from BindingDB's records for doi:10.1021/jm960597m.
